experiment: 28-day repeated oral dose toxicity and toxicokinetic study; assay type: in vivo, rats; conditions: both sexes, rat, in vivo, oral; dose groups of 2 and 4 mg/kg; read-out: elimination half-life (t1/2(e))

| structure notation | half-life |
| --- | --- |
| CN1CCN(Cc2ccc(Nc3ncc(Cl)c(Nc4ccccc4S(=O)(=O)N(C)C)n3)cc2)CC1 | 2.3 to 8.9 h |

====

experiment: Pharmacokinetic study free base v. tartrate salt, oral gavage; assay type: in vivo; details: Sprague-Dawley, rat, plasma; fasted male rats; PO in 20% solutol; nominal 20 mg/kg; read-out: AUC0-24 hours

| structure notation | unit of measure | AUC(0-t) |
| --- | --- | --- |
| CN1CCN(Cc2ccc(Nc3ncc(Cl)c(Nc4ccccc4S(=O)(=O)N(C)C)n3)cc2)CC1 | ng·h/mL | 458 |
